Answer each item with its documented IC50.
# System: LTB4 biosynthesis in human whole blood
# RUN_DESCRIPTION: Human whole blood assay (hWB), inhibition of LTB4 biosynthesis
# Type: cell-based
# EXPERIMENTAL_SETUP: human blood diluted 1:3, 4 hours with compound, 10 μg/ml A23187 for 15 min, eicosanoid by ELISA; read-out: hWB IC50

Could you share which IC50 value was measured for N[C@H](CO)Cc1nc(-c2cccc([C@H]3COc4ccccc4O3)c2)no1 ?
91 nM

Could you share which IC50 value was measured for N[C@H](CO)Cc1nc(-c2ccc(Oc3ccc(C(F)(F)F)cn3)cc2)no1 ?
327 nM

Could you share which IC50 value was measured for N[C@H](CO)Cn1ccc(-c2cccc(Oc3ncc(Cl)cc3F)c2)n1 ?
379 nM

Could you share which IC50 value was measured for N[C@H](CO)Cc1nc(-c2ccc(Oc3ccc(OC(F)F)cn3)cc2)no1 ?
1850 nM

Could you share which IC50 value was measured for N[C@H](CO)Cn1nnc(-c2ccc(Oc3ccc(Cl)cc3)cc2)n1 ?
214 nM

Could you share which IC50 value was measured for N[C@H](CO)Cc1nc(-c2cccc(Oc3ccc(OC(F)F)cn3)c2)no1 ?
100 nM

Could you share which IC50 value was measured for N[C@H](CO)Cn1nnc(-c2cccc([C@@H]3COc4cccnc4O3)c2)n1 ?
39 nM

Could you share which IC50 value was measured for N[C@@H](CO)Cn1nnc(-c2ccc(Oc3ccc(Cl)cn3)cc2)n1 ?
179 nM

Could you share which IC50 value was measured for N[C@H](CO)Cn1nnc(-c2ccc(Oc3ccc(C4CC4)cn3)cc2)n1 ?
504 nM
